tested on: PPARδ (Homo sapiens, UniProt Q03181)
Construct: gene PPARD; GeneBLAzer bla HEK 293T reporter line (Invitrogen)
Sequence (Q03181 139-441 limits assumed): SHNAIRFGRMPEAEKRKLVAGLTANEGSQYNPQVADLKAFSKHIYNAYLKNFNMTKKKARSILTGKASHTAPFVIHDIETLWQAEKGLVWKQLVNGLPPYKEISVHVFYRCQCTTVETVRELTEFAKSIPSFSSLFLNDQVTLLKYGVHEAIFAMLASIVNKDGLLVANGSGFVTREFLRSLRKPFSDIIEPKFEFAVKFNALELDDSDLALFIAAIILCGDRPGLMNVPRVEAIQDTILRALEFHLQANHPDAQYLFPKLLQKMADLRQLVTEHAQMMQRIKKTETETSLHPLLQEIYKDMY
procedure details: cell-based
Set-up: species or system HEK 293T; GeneBLAzer GAL4-LBD beta-lactamase reporter, antagonist mode with added agonist, 460/530 nm FRET ratio
run parameters: with L165041 0.5 uM; antagonist mode, known agonist added; read-out: Control Titration EC50/IC50 (µM), antagonist mode

compound smiles: CC(C)c1ccc2c(c1)c(SC(C)(C)C)c(CC(C)(C)C(=O)O)n2Cc1ccc(Cl)cc1
IC50 (µM): 54
